I'd be grateful if you could share measured EC50 for these entries.
biological target: Peroxisome proliferator-activated receptor gamma/Nuclear receptor coactivator 1 (Homo sapiens); assay type: functional;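 note: agonist potency as compounds enhance coactivator SRC-1 recruitment to PPARgamma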
Sequence (P37231 whole entry): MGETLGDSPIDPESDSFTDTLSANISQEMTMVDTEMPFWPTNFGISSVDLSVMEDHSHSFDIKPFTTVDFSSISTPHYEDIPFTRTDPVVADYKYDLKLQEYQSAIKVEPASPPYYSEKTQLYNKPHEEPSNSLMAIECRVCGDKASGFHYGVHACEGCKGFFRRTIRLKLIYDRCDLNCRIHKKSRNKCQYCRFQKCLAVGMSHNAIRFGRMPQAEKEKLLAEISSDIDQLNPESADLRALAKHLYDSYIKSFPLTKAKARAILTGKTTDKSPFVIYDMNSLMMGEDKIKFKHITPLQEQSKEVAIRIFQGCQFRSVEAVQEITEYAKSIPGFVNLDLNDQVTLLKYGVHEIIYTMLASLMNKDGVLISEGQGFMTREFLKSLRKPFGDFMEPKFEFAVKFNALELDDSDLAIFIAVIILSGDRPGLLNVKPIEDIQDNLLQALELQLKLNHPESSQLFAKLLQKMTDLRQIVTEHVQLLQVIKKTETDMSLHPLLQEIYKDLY
Sequence (Q15788 whole entry, further chain): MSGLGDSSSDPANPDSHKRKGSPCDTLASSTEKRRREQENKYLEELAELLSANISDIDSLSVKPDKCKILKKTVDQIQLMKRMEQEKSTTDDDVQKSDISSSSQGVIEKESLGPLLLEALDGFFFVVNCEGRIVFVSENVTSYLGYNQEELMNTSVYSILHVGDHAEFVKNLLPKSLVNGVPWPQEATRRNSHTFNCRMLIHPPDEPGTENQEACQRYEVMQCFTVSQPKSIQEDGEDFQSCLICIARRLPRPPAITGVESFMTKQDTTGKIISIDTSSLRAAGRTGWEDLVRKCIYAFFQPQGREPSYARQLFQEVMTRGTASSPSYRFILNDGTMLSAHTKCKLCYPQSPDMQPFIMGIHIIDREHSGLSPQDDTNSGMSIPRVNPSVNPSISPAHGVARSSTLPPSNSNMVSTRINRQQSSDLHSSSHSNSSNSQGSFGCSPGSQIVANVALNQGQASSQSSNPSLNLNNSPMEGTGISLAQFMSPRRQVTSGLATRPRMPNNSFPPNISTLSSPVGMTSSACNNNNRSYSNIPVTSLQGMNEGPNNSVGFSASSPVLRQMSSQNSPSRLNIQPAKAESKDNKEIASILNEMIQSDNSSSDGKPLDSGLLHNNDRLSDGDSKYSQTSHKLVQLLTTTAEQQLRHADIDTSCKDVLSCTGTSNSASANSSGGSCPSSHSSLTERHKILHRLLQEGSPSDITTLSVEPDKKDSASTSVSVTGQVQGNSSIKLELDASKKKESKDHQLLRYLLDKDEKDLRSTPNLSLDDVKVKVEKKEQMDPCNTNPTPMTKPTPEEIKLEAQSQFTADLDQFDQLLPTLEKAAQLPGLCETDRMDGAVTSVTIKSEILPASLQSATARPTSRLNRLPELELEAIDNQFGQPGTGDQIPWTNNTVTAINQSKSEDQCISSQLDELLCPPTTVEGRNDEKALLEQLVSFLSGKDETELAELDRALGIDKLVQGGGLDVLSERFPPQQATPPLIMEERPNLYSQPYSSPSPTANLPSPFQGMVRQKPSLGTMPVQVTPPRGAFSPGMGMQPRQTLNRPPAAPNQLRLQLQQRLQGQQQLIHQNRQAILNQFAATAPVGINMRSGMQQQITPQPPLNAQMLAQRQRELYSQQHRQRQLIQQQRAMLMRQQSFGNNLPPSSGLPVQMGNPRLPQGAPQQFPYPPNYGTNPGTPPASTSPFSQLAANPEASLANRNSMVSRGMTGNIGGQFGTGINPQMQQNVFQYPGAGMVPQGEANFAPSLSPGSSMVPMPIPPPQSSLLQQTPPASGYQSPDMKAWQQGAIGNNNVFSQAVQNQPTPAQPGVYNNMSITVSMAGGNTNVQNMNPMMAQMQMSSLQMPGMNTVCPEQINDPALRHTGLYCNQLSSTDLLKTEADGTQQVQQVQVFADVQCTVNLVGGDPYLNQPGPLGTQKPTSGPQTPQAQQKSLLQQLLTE

Please fill in: EC50 reported for O=C(Cc1sc(-c2ccccc2Cl)nc1-c1ccccc1)Nc1ccccc1 = 10 µM (not active)

Please fill in: EC50 reported for Clc1cccc2sc(N3CCN(c4ccccc4)CC3)nc12 = > 79.4 µM (not active)

Please fill in: EC50 reported for Cc1sc2nc3c(SC(C)C(=O)O)cc(C(=O)c4ccccc4O)cn3c(=O)c2c1C (centres undefined) = 14.7 µM (not active)

Please fill in: EC50 reported for COc1ccc(OC)c2c1s/c(=N\C(=O)C(C)(C)C)n2C = > 79.4 µM (not active)

* * *

assay: Luminescence Cell-Based Dose Confirmation HTS to Identify Activators of 5'UTR Stem-Loop Driven Alpha-Synuclein mRNA Translation in H4 Neuroglioblastoma Cells. [Related pubchem assays: 1829 (Project Summary), 1814 (Primary HTS)]; format: functional
Calls of active or inactive are those of the source.
ATTRIBUTE MEASURED: EC50

Please fill in: EC50 reported for CCOC(=O)N1CCN(C(=O)CCNS(=O)(=O)c2ccc3c(c2)c(=O)n(C)c(=O)n3C)CC1 = > 120 µM (not active)

Please fill in: EC50 reported for Cc1ccsc1C1Nc2ccccc2-c2nc3ccccc3n21 (centres undefined) = 24.3 µM (active)

Please fill in: EC50 reported for CCn1nc(-c2ccccc2)nc2c(=O)n(C)c(=O)nc1-2 = > 120 µM (not active)

Please fill in: EC50 reported for CC1CCCCN1C(=O)CSc1nc2ccsc2c(=O)n1Cc1ccccn1 (centres undefined) = 46.3 µM (active)

* * *

I'd be grateful if you could share measured IC50 for these entries.
molecular target: Trace amine-associated receptor 1 (Homo sapiens); test: Counterscreen for agonists of the human trace amine associated receptor 1 (hTAAR1): Fluorescence-based cell-based high throughput dose response assay to identify hTAAR1 agonist that also desensitize TAAR1 receptor response.; type: functional;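 note: inhibition of calcium response to PEA at EC80 in Galpha16 coupled cells measured by Fluo-8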
Sequence (Q96RJ0 whole entry): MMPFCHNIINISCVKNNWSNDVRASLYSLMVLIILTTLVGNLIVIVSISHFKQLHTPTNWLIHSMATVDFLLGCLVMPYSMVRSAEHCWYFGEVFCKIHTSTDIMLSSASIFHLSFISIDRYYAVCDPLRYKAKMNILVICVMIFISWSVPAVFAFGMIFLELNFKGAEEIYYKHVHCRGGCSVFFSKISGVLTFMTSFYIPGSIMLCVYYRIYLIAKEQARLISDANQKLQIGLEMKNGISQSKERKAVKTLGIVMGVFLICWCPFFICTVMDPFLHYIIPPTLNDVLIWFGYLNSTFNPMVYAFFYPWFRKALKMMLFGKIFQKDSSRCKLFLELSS
Calls of active or inactive are those of the source.

Please fill in: IC50 reported for CCOC(=O)[C@]12CCCC=C1N(Cc1ccc3c(c1)OCO3)C(=O)[C@H](CC(=O)NCCc1ccccc1OC)C2 = 5850 nM (active)

Please fill in: IC50 reported for OCCNc1nc(Nc2cccc(O)c2)nc2ccccc12 = 261 nM (active)

Please fill in: IC50 reported for N=C(N)N/N=C/c1c(Cl)cccc1Cl = 1170 nM (active)

Please fill in: IC50 reported for Oc1ccc(/C=N/Nc2ccnc3cc(Cl)ccc23)cc1O = 2470 nM (active)

Please fill in: IC50 reported for CCn1cc(C(=O)O)c(=O)c2cc(F)c(N/N=C/c3ccccc3)cc21 = 1680 nM (active)

* * *

I'd be grateful if you could share measured IC50 for these entries.
biological target: Leucine aminopeptidase (Plasmodium falciparum 3D7, UniProt Q8IL11); test: P. falciparum M17LAP inhibitors, primary screen, biochemical, fluorogenic H-Leu-NHMec substrate, 1536-well (AID 1619); type: functional
Sequence (Q8IL11 whole entry): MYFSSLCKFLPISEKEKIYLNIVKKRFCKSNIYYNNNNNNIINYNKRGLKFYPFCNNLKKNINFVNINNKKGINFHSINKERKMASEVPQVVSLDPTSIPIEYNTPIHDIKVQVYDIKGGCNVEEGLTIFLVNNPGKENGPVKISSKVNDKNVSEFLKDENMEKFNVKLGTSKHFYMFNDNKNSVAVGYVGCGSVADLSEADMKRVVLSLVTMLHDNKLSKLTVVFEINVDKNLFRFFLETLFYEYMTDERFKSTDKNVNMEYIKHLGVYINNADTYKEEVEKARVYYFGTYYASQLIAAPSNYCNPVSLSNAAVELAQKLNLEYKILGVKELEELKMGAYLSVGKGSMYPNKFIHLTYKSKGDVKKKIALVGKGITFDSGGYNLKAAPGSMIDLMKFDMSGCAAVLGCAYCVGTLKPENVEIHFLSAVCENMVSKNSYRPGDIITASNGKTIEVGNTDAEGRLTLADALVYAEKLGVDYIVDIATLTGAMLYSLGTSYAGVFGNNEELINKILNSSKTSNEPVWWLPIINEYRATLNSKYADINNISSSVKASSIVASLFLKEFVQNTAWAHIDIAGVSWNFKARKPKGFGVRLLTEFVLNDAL
Calls of active or inactive are those of the source.

Please fill in: IC50 reported for CN1C(=O)/C(=C/c2ccco2)S/C1=N/c1cccc(C(=O)O)c1 = 50.6 µM (active)

Please fill in: IC50 reported for Nc1n[nH]c(N)c1N=Nc1ccc(F)cc1 = 8.11 µM (active)

Please fill in: IC50 reported for CCOC(=O)CC(=O)CSc1nc(O)c2sc(=S)n(-c3ccc(OCC)cc3)c2n1 = 26.4 µM (active)

Please fill in: IC50 reported for Cc1cc(NS(=O)(=O)c2ccc(NC(=O)c3cnc4scc(C)n4c3=O)cc2)nc(C)n1 = 23.1 µM (active)

Please fill in: IC50 reported for O=C1NC(=O)N(Cc2ccccc2)C(=O)/C1=C/NNC(=O)c1ccccc1O = 62.3 µM (active)
